The reported numbers originate from the supplement of paper PMC10981050.

This section presents compounds with their documented cell viability values.
# Tested on: OCI-AML2
# assay: cell viability relative to vehicle control; higher = less cytotoxic;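 also: after 48 h exposure read by CellTiter-Glo luminescence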
# condition-summary: 10 µM; SRSF2 genotype: P95H/wt
Counter-ions that a name gives are not always drawn.
Express the result in % but write the number alone.

For orientation, consider the following solved cases.
O=C1CCc2c(ccc3ccccc23)O1 ... 96.9
O=C(O)COCCN1CCN(C(c2ccccc2)c2ccc(Cl)cc2)CC1 (stereo not given) [Cetirizine Dihydrochloride] ... 103
NC(=O)N1c2ccccc2CC(=O)c2ccccc21 [Oxcarbazepine] ... 86

**Q:** Quick one: cell viability for C[C@H](Oc1ccc(S(C)(=O)=O)cc1C(=O)N1CCN(c2ncc(C(F)(F)F)cc2F)CC1)C(F)(F)F ?
**A:** 101

**Q:** Quick one: cell viability for Cc1ccc(O)c([C@H](CCN(C(C)C)C(C)C)c2ccccc2)c1 [Tolterodine tartrate (Detrol LA)] ?
**A:** 88.6

----------
This section presents molecules with their documented cell viability values.
# System: K562
# assay: cell viability relative to vehicle control; higher = less cytotoxic
# condition-summary: 10 µM; SRSF2 genotype: SRSF2 wt/wt
Express the result in % but write the number alone.

For orientation, consider the following solved cases.
CC(C)=CCC[C@](C)(O[C@@H]1O[C@H](CO)[C@@H](O)[C@H](O)[C@H]1O)[C@H]1CC[C@]2(C)[C@@H]1[C@H](O)C[C@@H]1[C@@]3(C)CC[C@H](O)C(C)(C)[C@@H]3[C@@H](O)C[C@]12C [Ginsenoside F1] ... 102
OC(Cn1cncn1)(Cn1cncn1)c1ccc(F)cc1F [Fluconazole] ... 101
C/C=C1\[C@H]2C=C(C)C[C@]1(N)c1ccc(=O)[nH]c1C2 [(-)-Huperzine A (HupA)] ... 108
C[n+]1c2ccccc2nc2ccccc21 [Phenazine methosulfate] ... 13.5

**Q:** Quick one: cell viability for CC(=O)NC(CC(C)C)C(=O)O (centres undefined) [Acetylleucine] ?
**A:** 97

**Q:** Quick one: cell viability for Cc1[nH]c2ccccc2c1CCNC(=O)c1cccs1 ?
**A:** 100

----------
# System: OCI-AML2
# assay: cell viability relative to vehicle control; higher = less cytotoxic
# condition-summary: 10 µM; SRSF2 genotype: wt/wt
Where a name gives a salt, the structure may show the parent alone.
Response field label: string, one of 1 (cell viability strictly below 90%) or 0.

**Q:** Given the entry CC(=O)Oc1ccccc1C(=O)Nc1ncc([N+](=O)[O-])s1 [Nitazoxanide (Alinia, Annita)] , would its reported cell viability be below 90%?
**A:** 1

**Q:** Given the entry C[C@H]1C[C@@H]2[C@H]([C@@H](O)C[C@@]3(C)[C@H]2CC[C@]3(O)C(=O)CO)[C@@]2(C)C=CC(=O)C=C12 , would its reported cell viability be below 90%?
**A:** 0

**Q:** Given the entry CCn1cc(C(=O)O)c(=O)c2cc(F)c(N3CCN(C)CC3)cc21 [Pefloxacin Mesylate Dihydrate] , would its reported cell viability be below 90%?
**A:** 0

**Q:** Given the entry COc1cccc(OC)c1C(=O)OCc1cc(O)ccc1O[C@@H]1O[C@H](CO)[C@@H](O)[C@H](O)[C@H]1O [Curculigoside] , would its reported cell viability be below 90%?
**A:** 0

----------
# Tested on: OCI-AML2
# assay: cell viability relative to vehicle control; higher = less cytotoxic
# condition-summary: 10 µM; SRSF2 genotype: wt/wt
This section presents compounds with their documented cell viability values.
Respond with a number, then the unit of measure.

For orientation, consider the following solved cases.
C[N+]1(C)[C@@H]2CC[C@H]1C[C@@H](OC(=O)C(O)c1ccccc1)C2 (stereo partly specified) [Homatropine Methylbromide] ... 105%
C[C@@H]1O[C@@H](O[C@H]2[C@H](O[C@H]3CC[C@@]4(C)[C@@H](CC[C@]5(C)[C@@H]4CC=C4[C@@H]6CC(C)(C)CC[C@]6(C(=O)O)CC[C@]45C)[C@]3(C)CO)OC[C@H](O)[C@@H]2O)[C@H](O)[C@H](O)[C@H]1O ... 48.8%
C=CCC(=NOS(=O)(=O)O)S[C@@H]1O[C@H](CO)[C@@H](O)[C@H](O)[C@H]1O (stereo in doubt) ... 101%
CC(C)=CCC/C(C)=C/CC/C(C)=C/CCC(=O)OC/C=C(\C)CCC=C(C)C [Gefarnate] ... 93.5%

**Q:** Quick one: cell viability for O=C(O)CCCc1ccccc1 [Sodium Phenylbutyrate] ?
**A:** 100%

**Q:** Quick one: cell viability for COc1cc(N2CCN(C)CC2)ccc1Nc1ncc2c(n1)N(C)c1ccccc1C(=O)N2 ?
**A:** 73.2%

----------
# Test system: K562
# assay: cell viability relative to vehicle control; higher = less cytotoxic
# condition-summary: 10 µM; SRSF2 genotype: SRSF2 wt/wt
This section presents compounds with their documented cell viability values.
Express the result in % but write the number alone.

For orientation, consider the following solved cases.
C=C[C@@H]1C[C@]1(NC(=O)[C@@H]1C[C@@H]2CN1C(=O)[C@H](C(C)(C)C)NC(=O)O[C@@H]1C[C@H]1CCCCCc1nc3ccc(OC)cc3nc1O2)C(=O)NS(=O)(=O)C1CC1 [Grazoprevir] ... 93.4
CCN(CCO)CCCOc1ccc2c(Nc3cc(CC(=O)Nc4cccc(F)c4)[nH]n3)ncnc2c1 [Barasertib (AZD1152-HQPA)] ... 81
C[C@@H]1O[C@@H]1P(=O)(O)O [fosfomycin tromethamine] ... 100
CCn1nc(C2CCN(C(=O)CCO)CC2)nc1-c1cnc(N)c(-c2nnc(C(C)(C)C)o2)n1 ... 104

**Q:** K562 / cell viability / CO[C@@H](C(=O)N1Cc2[nH]nc(NC(=O)c3ccc(N4CCN(C)CC4)cc3)c2C1)c1ccccc1 : value?
**A:** 34.3

**Q:** K562 / cell viability / C[C@@H]1O[C@@H](OC[C@H]2O[C@@H](Oc3cc(O)c4c(c3)O[C@H](c3ccc(O)cc3)CC4=O)[C@H](O)[C@@H](O)[C@@H]2O)[C@H](O)[C@H](O)[C@H]1O [Narirutin] : value?
**A:** 92.3

----------
This section presents compounds with their documented cell viability values.
# Tested on: OCI-AML2
# assay: cell viability relative to vehicle control; higher = less cytotoxic
# condition-summary: 10 µM; SRSF2 genotype: wt/wt
Counter-ions that a name gives are not always drawn.
Express the result in % but write the number alone.

CC1=CC(=O)[C@@H]2C[C@H]1C2(C)C [(-)-Verbenone] ... 96.3

**Q:** OCI-AML2 / cell viability / O=C1NC(=O)C(c2ccccc2[N+](=O)[O-])=C1Nc1ccc(O)c(Cl)c1 : value?
**A:** 120

**Q:** OCI-AML2 / cell viability / CN[C@@H](C)C(=O)N[C@H](C(=O)N1CCC[C@H]1C(=O)N[C@H](C(=O)NCCCCCCNC(=O)[C@@H](NC(=O)[C@@H]1CCCN1C(=O)[C@@H](NC(=O)[C@H](C)NC)C1CCCCC1)C(c1ccccc1)c1ccccc1)C(c1ccccc1)c1ccccc1)C1CCCCC1 : value?
**A:** 9.14

**Q:** OCI-AML2 / cell viability / CN1CCCC(n2nc(Cc3ccc(Cl)cc3)c3ccccc3c2=O)CC1 (stereo not given) [Azelastine hydrochloride (Astelin)] : value?
**A:** 72.6

**Q:** OCI-AML2 / cell viability / CC1=C(C(=O)Nc2cc3cn[nH]c3cc2F)C(c2ccc(C(F)(F)F)cc2)CC(=O)N1 (stereo not given) : value?
**A:** 42.9

----------
# System: MOLM14
# assay: cell viability relative to vehicle control; higher = less cytotoxic
# condition-summary: 10 µM; SRSF2 genotype: SRSF2 P95H/wt
This section presents molecules with their documented cell viability values.

C=CC(=O)N1CC(N2CCN(C(=O)CNc3cc(C4(C)CC4)c(Cl)cc3O)CC2)C1 ... 86.1%

**Q:** MOLM14 / cell viability / C=CC(=O)N1C[C@H](Nc2ncnc3[nH]ccc23)CC[C@@H]1C : value?
**A:** 81.1%

**Q:** MOLM14 / cell viability / Cc1nc(-c2cccnc2)sc1C(=O)Nc1ccccc1-c1cn2c(CN3CCOCC3)csc2n1 : value?
**A:** 102%

**Q:** MOLM14 / cell viability / CC1(C)CCC(CN2CCN(c3ccc(C(=O)NS(=O)(=O)c4ccc(NCC5CCOCC5)c([N+](=O)[O-])c4)c(Oc4cnc5[nH]ccc5c4)c3)CC2)=C(c2ccc(Cl)cc2)C1 : value?
**A:** 1.63%

----------
# Tested on: OCI-AML2
# assay: cell viability relative to vehicle control; higher = less cytotoxic
# condition-summary: 10 µM; SRSF2 genotype: P95H/wt
Response field label: string, one of True (cell viability strictly below 90%) or False.

OC[C@@H](O)[C@@H](O[C@H]1O[C@H](CO)[C@@H](O)[C@H](O)[C@H]1O)[C@H](O)[C@@H](O)CO ... False

**Q:** Given the entry C[C@@H]1O[C@@H]1P(=O)(O)O , would its reported cell viability be below 90%?
**A:** False

**Q:** Given the entry CCCCNc1ncc2c(-c3ccc(CN4CCN(C)CC4)cc3)cn([C@H]3CC[C@H](O)CC3)c2n1 , would its reported cell viability be below 90%?
**A:** True

**Q:** Given the entry COc1cc2c(cc1Cc1cccc(Cl)c1F)c(=O)c(C(=O)O)cn2[C@H](CO)C(C)C , would its reported cell viability be below 90%?
**A:** True

**Q:** Given the entry COC(=O)C1=C(C)NC(C)=C(C(=O)OC)C1c1ccccc1[N+](=O)[O-] , would its reported cell viability be below 90%?
**A:** True
